// data source = ChEMBL document CHEMBL1127645

The following molecules are listed with their measured ED50 values.
# Tested on: Cysteinyl leukotriene receptor (Cavia porcellus)
# ASSAY OVERVIEW: Inhibition of percent protection from LTD4-induced dyspnea in a conscious guinea pig administered intravenously
Answer in µmol/kg, number only, no unit symbol.

Below, 5 molecules whose answers are already recorded.
- COc1cc(C(=O)NS(=O)(=O)c2ccccc2C)ccc1Cc1cn(C)c2ccc(C(=O)NCC3CCCC3)cc12: 0.69
- CCn1cc(Cc2ccc(C(=O)NS(=O)(=O)c3ccccc3C)cc2OC)c2cc(C(=O)NCC(C)CC(F)(F)F)ccc21 (centres undefined): 0.011
- CCC(C)CNC(=O)c1ccc2c(c1)c(Cc1ccc(C(=O)NS(=O)(=O)c3ccccc3C)cc1OC)cn2C (centres undefined): 1.39
- CCC(CNC(=O)c1ccc2c(c1)c(Cc1ccc(C(=O)NS(=O)(=O)c3ccccc3C)cc1OC)cn2C)CC(F)(F)F (centres undefined): 0.047
- CCC(CC)CNC(=O)c1ccc2c(c1)c(Cc1ccc(C(=O)NS(=O)(=O)c3ccccc3C)cc1OC)cn2C: 1.09

Proceeding to the next molecule to report its ED50.
Cysteinyl leukotriene receptor (Cavia porcellus) ED50 of "COc1cc(C(=O)NS(=O)(=O)c2ccccc2C)ccc1Cc1cn(C)c2ccc(C(=O)NC[C@@H](C)CC(F)(F)F)cc12" is 0.047

###

# ASSAY OVERVIEW: Compound was evaluated for the clearance in rat
# Format: ADME, organism-based
# TEST SETTINGS: in vivo
MEASURED ATTRIBUTE: clearance
Please answer using a numeric value trailed by its unit.

Documented clearance of COc1cc(C(=O)NS(=O)(=O)c2ccccc2C)ccc1Cc1cn(C)c2ccc(C(=O)NCC(C)CC(F)(F)F)cc12 (stereo unspecified) : 0.11 L/h/kg

###

# ASSAY OVERVIEW: Clearance in guinea pig
# Format: ADME, organism-based, Cavia porcellus
# TEST SETTINGS: in vivo
MEASURED ATTRIBUTE: clearance (mL/min/kg)
Answer in mL/min/kg, number only, no unit symbol.

• COc1cc(C(=O)NS(=O)(=O)c2ccccc2C)ccc1Cc1cn(C)c2ccc(C(=O)NCC(C)CC(F)(F)F)cc12 (configuration not stated) = 12.3

Documented clearance of "COc1cc(C(=O)NS(=O)(=O)c2ccccc2C)ccc1Cc1cn(C)c2ccc(C(=O)NC[C@H](C)CC(F)(F)F)cc12" : 14.2

###

# EXPERIMENTAL SYSTEM: Cysteinyl leukotriene receptor 1 (Cavia porcellus) (UniProt Q2NNR5)
# Sequence (Q2NNR5 whole entry): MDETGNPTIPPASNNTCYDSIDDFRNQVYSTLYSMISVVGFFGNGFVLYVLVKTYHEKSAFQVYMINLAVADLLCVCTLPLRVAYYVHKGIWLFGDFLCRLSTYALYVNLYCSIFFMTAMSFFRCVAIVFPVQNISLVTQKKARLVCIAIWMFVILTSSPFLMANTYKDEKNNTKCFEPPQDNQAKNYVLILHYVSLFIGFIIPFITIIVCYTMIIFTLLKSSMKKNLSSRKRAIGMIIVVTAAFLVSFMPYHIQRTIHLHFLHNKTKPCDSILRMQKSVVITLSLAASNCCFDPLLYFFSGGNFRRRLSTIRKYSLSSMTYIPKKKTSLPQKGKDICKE
# ASSAY OVERVIEW: Effective dose for the inhibition of percent protection from LTD4-induced dyspnea in a conscious guinea pig administered through oral route
# Type: functional
MEASURED ATTRIBUTE: ED50 (µmol/kg)
Answer in µmol/kg, number only, no unit symbol.

Below, 7 compounds whose answers are already recorded.
• COc1cc(C(=O)NS(=O)(=O)c2ccccc2C)ccc1Cc1cn(C)c2ccc(C(=O)NC[C@@H](C)CC(F)(F)F)cc12 = 3.73
• CCn1cc(Cc2ccc(C(=O)NS(=O)(=O)c3ccccc3C)cc2OC)c2cc(C(=O)NCC(C)CC(F)(F)F)ccc21 (stereo not drawn) = 1.42
• CCC(C)CNC(=O)c1ccc2c(c1)c(Cc1ccc(C(=O)NS(=O)(=O)c3ccccc3C)cc1OC)cn2C (stereo not drawn) = 20
• CCC(CNC(=O)c1ccc2c(c1)c(Cc1ccc(C(=O)NS(=O)(=O)c3ccccc3C)cc1OC)cn2C)CC(F)(F)F (stereo not drawn) = 2.64
• COc1cc(C(=O)NS(=O)(=O)c2ccccc2C)ccc1Cc1cn(C)c2ccc(C(=O)NCC3CCCC3)cc12 = 19.2
• COc1cc(C(=O)NS(=O)(=O)c2ccccc2Cl)ccc1Cc1cn(C)c2ccc(C(=O)NCC(C)CC(F)(F)F)cc12 (stereo not drawn) = 2.5
• CCC(CC)CNC(=O)c1ccc2c(c1)c(Cc1ccc(C(=O)NS(=O)(=O)c3ccccc3C)cc1OC)cn2C = 14.7

Proceeding to the next compound to report its ED50.
Documented ED50 of CCC(CNC(=O)c1ccc2c(c1)c(Cc1ccc(C(=O)NS(=O)(=O)c3ccccc3Br)cc1OC)cn2C)CC(F)(F)F (stereo not drawn) : 2.5
